# Tested on: P388 leukemia ip, CD2F1 mice, survival T/C
# assay_method_text: NCI In Vivo Anticancer Drug Screen. Data for tumor model P388 Leukemia (intraperitoneal) in CD2F1 (CDF1) mice
# test_parameters: endpoint: median survival time; dose: 200.0 mg/kg/injection; schedule: Q04DX003 (ip); vehicle: Klucel (hydroxypropylcellulose) (HPC)
# Experimental: The antitumor activity of compounds was measured in mice bearing transplantable tumors. Survival or tumor size were measured and the results are expressed as the measurement made in the treated group (T) divided by the measurement made in the vehicle treated control group (C). The tumor model used in this assay is P388 Leukemia (intraperitoneal) in CD2F1 (CDF1) mice
Inconclusive results and toxic doses are left out. How the source made its calls: active means survival T/C of 150% or more; inactive means T/C below 125% in these data.
Thanks in advance; please answer with one of these: active, inactive

// outcome(item) with item = N#CNc1nnnn1-c1ccc(-n2nnnc2NC#N)cc1 (tested in a mixture with another compound)
inactive

// outcome(item) with item = CN(C)CC1CCC1N1c2ccccc2Sc2ccc(Cl)cc21 (stereo unspecified)
inactive

// outcome(item) with item = Cc1c(Cc2ccccc2)[n+](=O)c2ccccc2n1[O-]
inactive

// outcome(item) with item = O=C1CCCCc2scc(C(=O)O)c2N1
inactive

// outcome(item) with item = c1ccc(P(CCP(c2ccccc2)c2ccccc2)c2ccccc2)cc1
active

// outcome(item) with item = C/C(=C/c1ccccc1)C(=O)C1C(c2ccccc2)CC(O)C(C)C1c1ccccc1 (stereo unspecified)
inactive

* * *

# Test system: P388 leukemia ip, CD2F1 mice, survival T/C
# assay_method_text: NCI In Vivo Anticancer Drug Screen. Data for tumor model P388 Leukemia (intraperitoneal) in CD2F1 (CDF1) mice
# test_parameters: endpoint: median survival time; dose: 400.0 mg/kg/injection; schedule: Q01DX001 (ip); vehicle: Klucel (hydroxypropylcellulose) (HPC); higher = longer survival
Toxic doses and inconclusive results are not listed.
value_type: T/C

Reported T/C (P388 leukemia ip, CD2F1 mice, survival T/C) for entry COc1cc2c(C)c3ccccc3c(C)c2c2ccccc12 is 105 % of control

Reported T/C (P388 leukemia ip, CD2F1 mice, survival T/C) for entry COc1ccc(-n2c(=O)c(N=Nc3ccccc3C)c(O)n(-c3ccccc3Cl)c2=S)cc1 is 95 % of control

Reported T/C (P388 leukemia ip, CD2F1 mice, survival T/C) for entry COc1cc2c(OC)c(c1)CCCC1=CC(=O)C=C(CCC2)C1=O is 90 % of control

Reported T/C (P388 leukemia ip, CD2F1 mice, survival T/C) for entry NC(=S)N/N=C/c1c(Cl)nc2sccn12 is 97 % of control

Reported T/C (P388 leukemia ip, CD2F1 mice, survival T/C) for entry Cc1cc(C)c2cc(=O)oc-2c(C)c1 is 100 % of control

Reported T/C (P388 leukemia ip, CD2F1 mice, survival T/C) for entry O=C(SCNS(=O)(=O)c1ccccc1)c1ccccc1 is 114 % of control

Reported T/C (P388 leukemia ip, CD2F1 mice, survival T/C) for entry O=C(O)CCC1CC(=O)OC1c1ccccc1 (stereo unspecified) is 94 % of control

Reported T/C (P388 leukemia ip, CD2F1 mice, survival T/C) for entry OCc1c(Cl)nc2sccn12 is 92 % of control

Reported T/C (P388 leukemia ip, CD2F1 mice, survival T/C) for entry CCOC(=O)Cn1c(O)c(C2=c3cc(Br)ccc3=NC2=O)sc1=O is 99 % of control

Reported T/C (P388 leukemia ip, CD2F1 mice, survival T/C) for entry CC(=O)N1C(=O)Cc2ccccc21 is 91 % of control

Reported T/C (P388 leukemia ip, CD2F1 mice, survival T/C) for entry CSc1nccn2cnnc12 is 101 % of control

* * *

# Test system: P388 leukemia ip, CD2F1 mice, survival T/C
# assay_method_text: NCI In Vivo Anticancer Drug Screen. Data for tumor model P388 Leukemia (intraperitoneal) in CD2F1 (CDF1) mice
# test_parameters: endpoint: median survival time; dose: 50.0 mg/kg/injection; schedule: Q01DX005 (ip); vehicle: saline with Tween-80; higher = longer survival
Toxic doses and inconclusive results are not listed.
Consider the following molecules; for each one, report its T/C.

T/C for Nc1ncnc2nc(N=Nc3c(O)ccc4ccccc34)[nH]c12 is 104 % of control

T/C for ON1c2ccc3ccccc3c2C=CC1(c1ccccc1)c1ccccc1 is 103 % of control

T/C for OC(c1cc(-c2ccc(Cl)cc2)nc2ccccc12)C1CCCCN1 (stereo not drawn) is 105 % of control

T/C for COC(=O)c1cc(C2OC3OC(C)(C)OC3C2OC)nn1-c1ccc([N+](=O)[O-])cc1 (stereo not drawn) is 109 % of control

T/C for CCCCNc1cc(-c2c(N)nc(N)nc2CC)ccc1[N+](=O)[O-] is 101 % of control

T/C for NC(=O)N=Nc1cccc(Cl)c1 is 98 % of control

T/C for COc1ccc(C(=O)Nc2c(O)ccc3ccccc23)cc1OC is 101 % of control

T/C for C1CCN(CCC[Si]23OCCN(CCO2)CCO3)C1 is 108 % of control

T/C for O=C(O)c1cccc(/C=C/c2ccccc2)c1 is 107 % of control

T/C for Nc1ccccc1Sc1ccc2c3c(cccc13)C(=O)N(c1ccccc1)C2=O is 91 % of control

T/C for CCN(CC)CCCC(C)NCC(O)c1cc(-c2ccc(Cl)cc2)nc2ccccc12 (stereo not drawn) is 107 % of control

T/C for CN(C)c1ccc(N=NN=c2n(C)c3ccccc3n2C)c(Cl)c1 is 117 % of control

T/C for Cc1ccc(NCC2CCCN3CCCCC23)c2c(=O)c3ccccc3sc12 (stereo not drawn) is 101 % of control

T/C for Nc1nnc2nc(CC(=O)c3cccc([N+](=O)[O-])c3)/c(=C/C(=O)c3cccc([N+](=O)[O-])c3)n12 is 94 % of control

T/C for CCCC1OCC2OC(Nc3ccccc3)C(O)C(O)C2O1 (stereo not drawn) is 103 % of control

T/C for Cc1ccc([NH-])c(C(=O)O)c1.Cc1ccc([NH-])c(C(=O)O)c1.[Cu+2] is 94 % of control

T/C for O=C(Nc1ccccc1)OC(CS(=O)(=O)c1ccccc1)C(Cl)(Cl)Cl (stereo not drawn) is 92 % of control

T/C for CC1(/C=N/NC(N)=O)NC(=O)NC1=O (stereo not drawn) is 96 % of control

T/C for Cc1cccnc1NCc1ccccn1 is 103 % of control

T/C for C=CCOc1cc2c(cc1C(C)c1ccc(OC)c(OC)c1)OCO2 (stereo not drawn) is 99 % of control

T/C for CN(C)c1ccc2cc(-n3nnc4cc([N+](=O)[O-])ccc43)c(=O)oc2c1 is 90 % of control

T/C for N=c1nc(N)nc2n1N=C(c1ccc(Cl)cc1)CS2 is 92 % of control

T/C for CC(=O)O[C@@]1(C)OC(=O)[C@@]2(c3ccccc3)N(C(C)=O)C(C)=C(C#N)[C@@]12C#N is 100 % of control

* * *

# System: P388 leukemia ip, CD2F1 mice, survival T/C
# assay_method_text: NCI In Vivo Anticancer Drug Screen. Data for tumor model P388 Leukemia (intraperitoneal) in CD2F1 (CDF1) mice
# test_parameters: endpoint: median survival time; dose: 50.0 mg/kg/injection; schedule: Q01DX009 (ip); vehicle: saline with Tween-80; higher = longer survival
Toxic doses and inconclusive results are not listed.
Consider the following molecules; for each one, report its T/C.

T/C for CCN(CC)CCNC1=CC(=S)NC(C)(C)C1 is 94 % of control

T/C for Cc1ccc(C(=O)[O][Hg][CH2]C2COC([CH2][Hg][O]C(=O)c3ccc(C)cc3)CO2)cc1 (centres undefined) is 113 % of control

T/C for CCCC(C#N)OC(=O)c1ccccc1 (centres undefined) is 104 % of control

T/C for COc1cc(OC)c(C(C)=O)c(OC)c1OC is 106 % of control

T/C for Fc1cccc(CSc2ncnc3nc[nH]c23)c1 is 95 % of control

T/C for CN1CCC2(CC1)COCc1ccccc12 is 104 % of control

T/C for NC(N)=O.NC(N)=O.NC(N)=O.NC(N)=O.NC(N)=O.NC(N)=O.[Fe+3].[O-][Cl+3]([O-])([O-])O is 96 % of control

T/C for O=C(O)c1cc2ccccc2c2c1C(=O)c1ccccc1-2 is 90 % of control

T/C for CC(C)OC1CC(C)(C)c2c(-c3ccccc3)nn(-c3ccccc3)c2O1 (centres undefined) is 109 % of control

T/C for Cc1cccn2c([N+](=O)[O-])cnc12 is 102 % of control

T/C for CCN(CC)C(=O)CSc1ccc(Cl)nn1 is 97 % of control

T/C for CC(C)NCC(O)COc1ccc(OCc2ccccc2)c(OCc2ccccc2)c1 (centres undefined) is 100 % of control

T/C for CNCc1nc2sc3c(c2c(=O)[nH]1)CCCC3 is 97 % of control

T/C for Oc1ccc(N=Cc2ccc(OCc3ccccc3)cc2)cc1 is 97 % of control
